Test system: Escherichia coli
assay.protocol: Antimicrobial activity against Escherichia coli ATCC 25922 assessed as inhibition of […] growth after 16 hrs by broth dilution method
Type: functional
experimental.context: ATCC 25922, 16 h
Measured MIC values are reported for all entries that follow.
Write the value in µg/mL as a bare number.

{"columns": ["substance", "test.system", "value.unit", "MIC"],
 "data": [
  ["H-KFFRKLKKSVKKRAKEFFKKPRVIGVSIPF-OH", "Escherichia coli", "µg/mL", 2.34],
  ["H-VKRWKKWWRKLKKSV-NH2", "Escherichia coli", "µg/mL", 18.8],
  ["H-VKRFKKFFRKFKKSV-NH2", "Escherichia coli", "µg/mL", 37.5],
  ["H-VKRWKKWRWKWKKWV-NH2", "Escherichia coli", "µg/mL", 9.38],
  ["H-VKRFKKFFRKLKKSV-NH2", "Escherichia coli", "µg/mL", 18.8]
]}

Now look at this entry.
# query: MIC of entry "H-VKRWKKFWRKWKKWW-NH2"
18.8
